assay: Compound plasma exposure in mouse (CD-1), daily oral dosing, same table as the cyno DRF study; assay type: in vivo; settings: CD-1, mouse, 300 mg/kg, 300 mg/kg PO, 1 day of dosing
endpoint_name: AUC (µM·h)
Numbers only; they are read as µM·h.

Examples from the recorded data:
CN1CCN([C@@H]2CCCN(c3cnc(C(N)=O)c(Nc4ccc(C5CCN(C[C@H]6CCN(c7ccc8c(c7)C(=O)N(C7CCC(=O)NC7=O)C8=O)C6)CC5)cc4)n3)C2)C1=O (stereo partly drawn) | 9.53
NC(=O)c1ncc(N2CCCCC2)nc1Nc1ccc(C2CCN(C[C@@H]3CCN(c4ccc5c(c4)C(=O)N(C4CCC(=O)NC4=O)C5=O)C3)CC2)cc1 (stereo partly drawn) | 38.6

Could you now consider this next compound?
AUC lookup needed for CN1CCN([C@H]2CCCN(c3cnc(C(N)=O)c(Nc4ccc(C5CCN(CC6CCN(c7ccc(C(=O)NC8CCC(=O)NC8=O)nc7)CC6)CC5)cc4)n3)C2)C1=O (stereo partly drawn) , thanks.
67

###

Parameter: Cmax. Scope: all listed entries.
Assay: Compound plasma exposure in cyno DRF study
Format: in vivo
Details: cynomolgus monkey, po, 30 mg/kg, 30 mg/kg PO, 1 day of dosing
Description: This example evaluates compound plasma concentration which results in in vivo BTK and/or Aiolos degradation in cyno. The data in the table below is from a study in which animals were dosed daily with the designated oral dose. Analysis for compound concentration in plasma was performed twenty-four hours following the previous dose.
Numbers only; they are read as nM.

Examples from the recorded data:
CN1CCN([C@H]2CCCN(c3cnc(C(N)=O)c(Nc4ccc(C5CCN(CC6CCN(c7ccc(C(=O)NC8CCC(=O)NC8=O)nc7)CC6)CC5)cc4)n3)C2)C1=O (stereo partly drawn) | 55
NC(=O)c1ncc(N2CCCCC2)nc1Nc1ccc(C2CCN(C[C@@H]3CCN(c4ccc5c(c4)C(=O)N(C4CCC(=O)NC4=O)C5=O)C3)CC2)cc1 (stereo partly drawn) | 51

Could you now consider this next molecule?
Cmax lookup needed for CN1CCN([C@@H]2CCCN(c3cnc(C(N)=O)c(Nc4ccc(C5CCN(C[C@H]6CCN(c7ccc8c(c7)C(=O)N(C7CCC(=O)NC7=O)C8=O)C6)CC5)cc4)n3)C2)C1=O (stereo partly drawn) , thanks.
18

###

test system: Mino cells; assay: Cell viability assay (CellTiter-Glo), Mino cells; format: cell-based; settings: Homo sapiens; Mino cells, treatment time 72 h
Criterion: EC50 strictly less than 10 nM. Met: criterion met. Not met: criterion not met.

Study these solved cases before continuing.
C=CC(=O)N1CCC[C@@H](n2nc(-c3ccc(Oc4ccccc4)cc3)c3c(N)ncnc32)C1 [Ibrutinib, reference compound] | criterion not met
CN1CCN([C@@H]2CCCN(c3cnc(C(N)=O)c(Nc4ccc(C5CCN(C[C@H]6CCN(c7ccc8c(c7)C(=O)N(C7CCC(=O)NC7=O)C8=O)C6)CC5)cc4)n3)C2)C1=O (some centres unmarked) [Compound 44] | criterion not met
NC(=O)c1ncc(N2CCCCC2)nc1Nc1ccc(C2CCN(C[C@@H]3CCN(c4ccc5c(c4)C(=O)N(C4CCC(=O)NC4=O)C5=O)C3)CC2)cc1 (some centres unmarked) [Compound 149] | criterion met
CC#CC(=O)N1CCC[C@H]1c1nc(-c2ccc(C(=O)Nc3ccccn3)cc2)c2c(N)nccn12 [Acalabrutinib, acalabrutinib, reference compound] | criterion not met

Here is the next item to consider.
Please state whether EC50 is below 10 nM for CN1CCN([C@H]2CCCN(c3cnc(C(N)=O)c(Nc4ccc(C5CCN(CC6CCN(c7ccc(C(=O)NC8CCC(=O)NC8=O)nc7)CC6)CC5)cc4)n3)C2)C1=O (some centres unmarked) [Compound 130]
criterion not met

###

assay: PK data for BTK CTMs (in vivo plasma concentrations); conditions: Mouse Balb/c, 90 mg/kg PO
endpoint_name: AUC

AUC lookup needed for NC(=O)c1ncc(N2CCCCC2)nc1Nc1ccc(C2CCN(C[C@@H]3CCN(c4ccc5c(c4)C(=O)N(C4CCC(=O)NC4=O)C5=O)C3)CC2)cc1 (stereo partly shown) , thanks.
37.5 µM·h

###

Parameter: EMAX (% viable cells). Scope: all listed entries.
tested on: TMD8 cells; assay: Cell viability assay (CellTiter-Glo), TMD8 cells; details: TMD8 cells, treatment time 72 h
Record the result as number plus unit.

CN1CCN([C@H]2CCCN(c3cnc(C(N)=O)c(Nc4cnn(C5CCN(CC6CN(c7ccc8c(c7)C(=O)N(C7CCC(=O)NC7=O)C8=O)C6)CC5)c4)n3)C2)C1=O (stereo partly drawn) [Compound 78] | 41%
CN1CCN([C@H]2CCCN(c3cnc(C(N)=O)c(Nc4ccc(N5CCC6(CCN(c7ccc8c(c7)C(=O)N(C7CCC(=O)NC7=O)C8=O)CC6)CC5)nc4)n3)C2)C1=O (stereo partly drawn) [Compound 80] | 45%

Could you now consider this next molecule?
EMAX (% viable cells) lookup needed for CN1CCN([C@@H]2CCCN(c3cnc(C(N)=O)c(Nc4cnn(C5CN(CC6CCN(c7ccc8c(c7)C(=O)N([C@@H]7CCC(=O)NC7=O)C8=O)CC6)C5)c4)n3)C2)C1=O [Compound 209] , thanks.
49%

###

Parameter: Cmax. Scope: all listed entries.
assay: Compound plasma exposure in mouse (CD-1), daily oral dosing, same table as the cyno DRF study; format: in vivo; conditions: CD-1, mouse, 100 mg/kg, 100 mg/kg PO, 1 day of dosing
Numbers only; they are read as nM.

Cmax lookup needed for NC(=O)c1ncc(N2CCCCC2)nc1Nc1ccc(C2CCN(C[C@@H]3CCN(c4ccc5c(c4)C(=O)N(C4CCC(=O)NC4=O)C5=O)C3)CC2)cc1 (stereo partly drawn) , thanks.
2050

What do you have for CN1CCN([C@H]2CCCN(c3cnc(C(N)=O)c(Nc4ccc(C5CCN(CC6CCN(c7ccc(C(=O)NC8CCC(=O)NC8=O)nc7)CC6)CC5)cc4)n3)C2)C1=O (stereo partly drawn) ?
3800

What do you have for CN1CCN([C@@H]2CCCN(c3cnc(C(N)=O)c(Nc4ccc(C5CCN(C[C@H]6CCN(c7ccc8c(c7)C(=O)N(C7CCC(=O)NC7=O)C8=O)C6)CC5)cc4)n3)C2)C1=O (stereo partly drawn) ?
400

###

Parameter: bioavailability. Scope: all listed entries.
assay: PK data for BTK CTMs (in vivo plasma concentrations); conditions: Dog Beagle, 10 mg/kg PO
Numbers only; they are read as %.

CN1CCN([C@H]2CCCN(c3cnc(C(N)=O)c(Nc4ccc(C5CCN(CC6CCN(c7ccc(C(=O)NC8CCC(=O)NC8=O)nc7)CC6)CC5)cc4)n3)C2)C1=O (some centres unmarked) [Compound 130] | 10

Could you now consider this next compound?
bioavailability lookup needed for NC(=O)c1ncc(N2CCCCC2)nc1Nc1ccc(C2CCN(C[C@@H]3CCN(c4ccc5c(c4)C(=O)N(C4CCC(=O)NC4=O)C5=O)C3)CC2)cc1 (some centres unmarked) [Compound 149] , thanks.
0.9

###

assay: PK data for BTK CTMs (in vivo plasma concentrations); conditions: Mouse Balb/c, 1 mg/kg IV, read-out: Volume of Distribution
Parameter: log10 Vd. Scope: all listed entries.
Answers are given as log10 of Vd in L/kg.

CN1CCN([C@@H]2CCCN(c3cnc(C(N)=O)c(Nc4ccc(C5CN(CC6CCN(c7ccc8c(=O)n(C9CCC(=O)NC9=O)ccc8c7)CC6)C5)cc4)n3)C2)C1=O (stereo partly drawn) [Compound 69] | 0.34
NC(=O)c1ncc(N2CCC[C@@H](N3CCOC3=O)C2)nc1Nc1ccc(C2CCN(C[C@H]3CCN(c4ccc5c(c4)C(=O)N(C4CCC(=O)NC4=O)C5=O)C3)CC2)cc1 (stereo partly drawn) [Compound 73] | 0.53
CN1CCN([C@@H]2CCCN(c3cnc(C(N)=O)c(Nc4ccc(C5CCN(CC6CCN(c7ccc8c(=O)n(C9CCC(=O)NC9=O)ccc8c7)CC6)CC5)cc4)n3)C2)C1=O (stereo partly drawn) [Compound 72] | -0.17

log10 Vd lookup needed for CN1CCN([C@@H]2CCCN(c3cnc(C(N)=O)c(Nc4ccc(C5CCN(C[C@H]6CCN(c7ccc8c(c7)C(=O)N(C7CCC(=O)NC7=O)C8=O)C6)CC5)cc4)n3)C2)C1=O (stereo partly drawn) [Compound 44] , thanks.
-0.16

What do you have for CN1CCN([C@H]2CCCN(c3cnc(C(N)=O)c(Nc4ccc(C5CCN(CC6CCN(c7ccc(C(=O)NC8CCC(=O)NC8=O)nc7)CC6)CC5)cc4)n3)C2)C1=O (stereo partly drawn) [Compound 130] ?
-0.14

###

test system: Mino cells; experiment: Cell viability assay (CellTiter-Glo), Mino cells; format: cell-based; conditions: Mino cells, treatment time 72 h
Criterion: EMAX (% viable cells) strictly less than 80%. Met: condition met. Not met: condition not met.

Please state whether EMAX (% viable cells) is below 80% for CN1CCN([C@@H]2CCCN(c3cnc(C(N)=O)c(Nc4ccc(C5CCN(C[C@H]6CCN(c7ccc8c(c7)C(=O)N(C7CCC(=O)NC7=O)C8=O)C6)CC5)cc4)n3)C2)C1=O (some centres unmarked)
condition met

What do you have for CC#CC(=O)N1CCC[C@H]1c1nc(-c2ccc(C(=O)Nc3ccccn3)cc2)c2c(N)nccn12 [Acalabrutinib, acalabrutinib, reference compound] ?
condition not met

What do you have for NC(=O)c1ncc(N2CCCCC2)nc1Nc1ccc(C2CCN(C[C@@H]3CCN(c4ccc5c(c4)C(=O)N(C4CCC(=O)NC4=O)C5=O)C3)CC2)cc1 (some centres unmarked) ?
condition met
